target: recombinant human AChE (Homo sapiens, UniProt P22303); test: biochemical
property-name: CC-v2 (curve classes)

compound | property-name | reported-measurement
COP(=O)(OC)SCn1c(=O)oc2cc(Cl)cnc21 [Azamethiphos] | CC-v2 (curve classes) | -1.1
COP(=O)(OC)O/C(=C\Cl)c1cc(Cl)c(Cl)cc1Cl [Z-Tetrachlorvinphos] | CC-v2 (curve classes) | -2.4
Cc1nc2n(c(=O)c1CCN1CCC(c3noc4cc(F)ccc34)CC1)CCCC2 [Risperidone] | CC-v2 (curve classes) | 4
CNC(=O)O/N=C(\SC)C(=O)N(C)C [Oxamyl] | CC-v2 (curve classes) | -1.1
CCOP(=S)(OCC)OC(Cl)C(Cl)(Cl)Cl (stereo not drawn) [Chlorethoxyfos] | CC-v2 (curve classes) | -2.1
CNC(=O)ON=C(C)SC [Methomyl] | CC-v2 (curve classes) | -1.1
CNC(=O)Oc1cccc2c1OC(C)(C)C2 [Carbofuran] | CC-v2 (curve classes) | -1.1
Cc1ccc2c(c1)OCC(=O)CO2 [7-Methyl-2H-1,5-benzodioxepin-3(4H)-one] | CC-v2 (curve classes) | -2.2
CS/C(C)=N\OC(=O)N(C)SN(C)C(=O)O/N=C(\C)SC [Thiodicarb] | CC-v2 (curve classes) | -1.1
O=C(C[S+]([O-])Cc1ccco1)NC/C=C\COc1cc(CN2CCCCC2)ccn1 (stereo not drawn) [Lafutidine] | CC-v2 (curve classes) | -2.2
COP(=S)(Oc1cc(Cl)c(Br)cc1Cl)c1ccccc1 (stereo not drawn) [Leptophos] | CC-v2 (curve classes) | -3
C=CC[N+]1([C@H]2C[C@H]3[C@@H]4CC[C@H]5C[C@H](OC(C)=O)[C@@H](N6CCCCC6)C[C@]5(C)[C@H]4CC[C@]3(C)[C@H]2OC(=O)CC)CCCCC1 [Rapacuronium bromide, reference compound] | CC-v2 (curve classes) | -2.2

* * *

molecular target: AChE in SH-SY5Y cells (Homo sapiens, UniProt P22303); assay: cell-based; details: potency (IC50), SH-SY5Y cells monolayer
Sequence (P22303 32-614): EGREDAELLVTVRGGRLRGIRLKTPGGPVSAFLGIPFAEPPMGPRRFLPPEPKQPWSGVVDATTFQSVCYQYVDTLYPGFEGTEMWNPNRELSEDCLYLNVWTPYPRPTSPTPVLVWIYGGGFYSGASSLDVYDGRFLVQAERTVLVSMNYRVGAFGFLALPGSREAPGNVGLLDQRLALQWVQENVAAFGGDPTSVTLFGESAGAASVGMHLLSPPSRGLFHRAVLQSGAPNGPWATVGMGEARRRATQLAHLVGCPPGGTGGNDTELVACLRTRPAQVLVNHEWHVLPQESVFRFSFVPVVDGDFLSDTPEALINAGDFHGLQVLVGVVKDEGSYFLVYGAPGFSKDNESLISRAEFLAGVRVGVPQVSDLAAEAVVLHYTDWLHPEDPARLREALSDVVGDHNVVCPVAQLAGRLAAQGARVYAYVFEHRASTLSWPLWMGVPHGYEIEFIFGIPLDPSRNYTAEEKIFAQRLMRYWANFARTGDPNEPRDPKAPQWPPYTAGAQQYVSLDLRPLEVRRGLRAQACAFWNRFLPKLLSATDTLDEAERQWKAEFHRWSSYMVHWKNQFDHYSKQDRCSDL
Where a name gives a salt, the structure may show the parent alone.
The entries below are paired with their reported log10 IC50.
property-name: log10 IC50 (log10 of the value in µM)

compound | reported-measurement
COP(N)(=S)Oc1ccccc1C(=O)OC(C)C (stereo not shown) | 1.73
CCOP(=S)(OCC)SCn1nnc2ccccc2c1=O | 1.04
CCc1ccc(C(=O)C(C)CN2CCCCC2)cc1.Cl (stereo not shown) [Eperisone hydrochloride, reference compound] | 1.40
O=C(O)/C=C/C(=O)O.O=C1c2ccccc2C(=O)N1CCc1noc(-c2ccc(CN3CCCCCC3)s2)n1 | 1.21
CNC(=O)Oc1cc(C)cc(C(C)C)c1 | -0.06
CNC(=C[N+](=O)[O-])NCCSCc1csc(CN(C)C)n1 [Nizatidine, reference compound] | 0.89
Cc1c(Cl)c(=O)oc2cc(OP(=O)(OCCCl)OCCCl)ccc12 | 0.18
CCOC(=O)c1ccc(NC(=O)CN2CCCCC2)cc1 [Sulcaine, reference compound] | 1.18
CNC(=O)Oc1cccc2c1OC(C)(C)O2 | 0.03
CCN1CCC2(CC1)COc1cc3c(cc12)N(C(=O)c1ccc(-c2ccc(-c4nnc(C)o4)cc2C)cc1)CC3.Cl [SB236057A] | 1.53
[H]/N=C(\N/C(=N/[H])NCCCCCCNC(=N)NC(=N)Nc1ccc(Cl)cc1)Nc1ccc(Cl)cc1 [Chlorhexidine diacetate, reference compound] | 1.85
COc1ccc(C(=O)NCc2ccc(OCCN(C)C)cc2)cc1OC.Cl [Itopride hydrochloride, reference compound] | 0.89
CCOP(=S)(OCC)OP(=S)(OCC)OCC | -0.02
CC(=O)Oc1cc(C(C)C)c(OCCN(C)C)cc1C [Moxisylyte hydrochloride, reference compound] | 1.30
CCOP(=S)(OCC)OC(Cl)C(Cl)(Cl)Cl (stereo not shown) | 1.45
Cc1ccc2c(n1)Oc1ccc(C(C)C(=O)OCC(=O)N(C)C)cc1C2 (stereo not shown) [Mepranoprofen arbamel, reference compound] | 1.29
CCOC(=O)C(SP(=S)(OC)OC)c1ccccc1 (stereo not shown) [Phenthoate] | 1.10
Cc1cc(OC(=O)N(C)C)nn1C(=O)N(C)C | 0.84
CNC(=O)O/N=C(\SC)C(=O)N(C)C | 0.40
CN1C(=O)COc2c(C(=O)NC3CN4CCC3CC4)cc(Cl)cc21 (stereo not shown) [Azasetron hydrochloride, reference compound] | 0.82
CCOP(=O)(OCC)Oc1cc(C)nc(C(C)C)n1 | -0.59
CCOP(=S)(OCC)SC(CCl)N1C(=O)c2ccccc2C1=O (stereo not shown) | 1.16
CNC(=O)ON=C(C)SC | 0.61
CNC(=O)ON=C(CSC)C(C)(C)C | 0.48
CNC(=O)O/N=C/C(C)(C)[S+](C)[O-] (stereo not shown) [Aldicarb sulfoxide] | -0.17
O=C(c1ccc(OCCN2CCCCC2)cc1)c1c(-c2ccc(O)cc2)sc2cc(O)ccc12 [Raloxifene hydrochloride, reference compound] | 0.63
CCOP(=S)(Oc1cnc(C(C)(C)C)nc1)OC(C)C (stereo not shown) | 1.30
Cl.Clc1cc(Cl)c2c(c1)N=C1CCCCCN1C2 | -0.06
CCOP(=O)(Sc1ccccc1)Sc1ccccc1 | 0.24
CNC(=O)Oc1ccccc1OC(C)C | 0.48
CCCSP(=O)(OCC)Oc1ccc(Br)cc1Cl (stereo not shown) | 0.57
